Tested on: NCI-H3122 (Lung Adenocarcinoma)
Assay: combination Emax (second highest fraction inhibited in the dose matrix, 72 h); higher = more inhibition; extreme values may be limits of the assay
measured-property: combination Emax
Enter a number only.

Please fill in: combination Emax reported for C[C@@H](c1ccc2nccn2c1)n1nnc2ncc(-c3cnn(C)c3)nc21 [Savolitinib] + Cc1c2c(nn1C)CSCc1cc(n(C)n1)CSc1cc(c3ccccc3c1)OCCCc1c(C(=O)O)n(C)c3c-2c(Cl)ccc13 [AZD5991] (first compound max 1 µM, 7x7, partner max 1 µM) = 0.188

Please fill in: combination Emax reported for Cc1c2c(nn1C)CSCc1cc(n(C)n1)CSc1cc(c3ccccc3c1)OCCCc1c(C(=O)O)n(C)c3c-2c(Cl)ccc13 [AZD5991] + CN(C)CCCOc1ccc(-c2ccc3ncc4c(c3c2)n(C2CCOCC2)c(=O)n4C)cn1 [AZD0156] (first compound max 1 µM, 7x7, partner max 1 µM) = 0.405

Please fill in: combination Emax reported for C[C@@H](Oc1cc(-c2cnn(C3CCNCC3)c2)cnc1N)c1c(Cl)ccc(F)c1Cl [Crizotinib] + CC1=C(C(=CC=C1)Cl)NC(=O)C2=CN=C(S2)NC3=CC(=NC(=N3)C)N4CCN(CC4)CCO [Dasatinib] (first compound max 10 µM, 7x7, partner max 2 µM) = 0.881

Please fill in: combination Emax reported for C=CCn1c(=O)c2cnc(Nc3ccc(N4CCN(C)CC4)cc3)nc2n1-c1cccc(C(C)(C)O)n1 [AZD1775] + C1CN(CCC1(C(=O)N[C@@H](CCO)C2=CC=C(C=C2)Cl)N)C3=NC=NC4=C3C=CN4 [Capivasertib] (first compound max 3 µM, partner max 3 µM) = 0.622

Please fill in: combination Emax reported for CN(CCO)CC[C@H](CSc1ccccc1)Nc1ccc(S(=O)(=O)NC(=O)c2ccc(N3CCC([C@@H](O)c4ccccc4-c4ccc(Cl)cc4)CC3)cc2)cc1S(=O)(=O)C(F)(F)F [AZD4320] + C1CN(CCC1(C(=O)N[C@@H](CCO)C2=CC=C(C=C2)Cl)N)C3=NC=NC4=C3C=CN4 [Capivasertib] (first compound max 1 µM, 7x7, partner max 3 µM) = 0.285

Please fill in: combination Emax reported for NC1(C(=O)N[C@@H](CCO)c2ccc(Cl)cc2)CCN(c2ncnc3[nH]ccc23)CC1 [Capivasertib] + CC(=O)c1c(C)c2cnc(Nc3ccc(N4CCNCC4)cn3)nc2n(C2CCCC2)c1=O [Palbociclib] (first compound max 10 µM, 7x7, partner max 10 µM) = 0.701

Please fill in: combination Emax reported for Cc1c2c(nn1C)CSCc1cc(n(C)n1)CSc1cc(c3ccccc3c1)OCCCc1c(C(=O)O)n(C)c3c-2c(Cl)ccc13 [AZD5991] + C[C@@H](Nc1cc(F)cc(F)c1)c1cc(C(=O)N(C)C)cc2c(=O)cc(N3CCOCC3)oc12 [AZD8186] (first compound max 1 µM, 7x7, partner max 3 µM) = 0.352

Please fill in: combination Emax reported for C[C@@H]1COCCN1c1cc(C2([S@](C)(=N)=O)CC2)nc(-c2ccnc3[nH]ccc23)n1 [AZD6738] + Nc1ccn([C@@H]2O[C@H](CO)[C@@H](O)C2(F)F)c(=O)n1 [Gemcitabine] (first compound max 10 µM, 7x7, partner max 0.3 µM) = 0.899

Please fill in: combination Emax reported for Cc1c2c(nn1C)CSCc1cc(n(C)n1)CSc1cc(c3ccccc3c1)OCCCc1c(C(=O)O)n(C)c3c-2c(Cl)ccc13 [AZD5991] + CC(=O)O[C@H]1C(=O)[C@@]2(C)[C@H]([C@H](OC(=O)c3ccccc3)[C@]3(O)C[C@H](OC(=O)[C@H](O)[C@@H](NC(=O)c4ccccc4)c4ccccc4)C(C)=C1C3(C)C)[C@]1(OC(C)=O)CO[C@@H]1C[C@@H]2O [Paclitaxel] (first compound max 1 µM, 7x7, partner max 3 µM) = 0.965

Please fill in: combination Emax reported for CN(CCO)CC[C@H](CSc1ccccc1)Nc1ccc(S(=O)(=O)NC(=O)c2ccc(N3CCC([C@@H](O)c4ccccc4-c4ccc(Cl)cc4)CC3)cc2)cc1S(=O)(=O)C(F)(F)F [AZD4320] + CCN(CCO)CCCOc1ccc2c(Nc3cc(CC(=O)Nc4cccc(F)c4)[nH]n3)ncnc2c1 [AZD2811] (first compound max 1 µM, 7x7, partner max 1 µM) = 0.269

Please fill in: combination Emax reported for COc1nnc2ccc(N3CCC(c4ccc(OCCN5CCN(C)C(=O)[C@H]5C)cc4)CC3)nn12 [AZD5153] + C=CCn1c(=O)c2cnc(Nc3ccc(N4CCN(C)CC4)cc3)nc2n1-c1cccc(C(C)(C)O)n1 [AZD1775] (first compound max 1 µM, partner max 1 µM) = 0.707

Please fill in: combination Emax reported for Cc1cc2ncnn2cc1Nc1ncc2c(n1)n(C1CCOCC1)c(=O)n2C [AZD7648] + CN(C)CCCOc1ccc(-c2ccc3ncc4c(c3c2)n(C2CCOCC2)c(=O)n4C)cn1 [AZD0156] (first compound max 10 µM, 7x7, partner max 1 µM) = 0.423

Please fill in: combination Emax reported for Cc1cc2ncnn2cc1Nc1ncc2c(n1)n(C1CCOCC1)c(=O)n2C [AZD7648] + COc1cc([C@@H]2c3cc4c(cc3[C@@H](O[C@@H]3O[C@@H]5CO[C@@H](C)O[C@H]5[C@H](O)[C@H]3O)[C@H]3COC(=O)[C@H]23)OCO4)cc(OC)c1O [Etoposide] (first compound max 10 µM, 7x7, partner max 10 µM) = 0.67

###

Would you mind telling me the reported combination Emax of each entry?
Test system: SK-GT-2 (Gastric Carcinoma)
Test: combination Emax (second highest fraction inhibited in the dose matrix, 72 h); higher = more inhibition; extreme values may be limits of the assay
Enter a number only.

Please fill in: combination Emax reported for CC1(C)CCC(CN2CCN(c3ccc(C(=O)NS(=O)(=O)c4ccc(NCC5CCOCC5)c([N+](=O)[O-])c4)c(Oc4cnc5[nH]ccc5c4)c3)CC2)=C(c2ccc(Cl)cc2)C1 [Venetoclax] + COc1cc(Nc2ncc3c(n2)-c2ccc(Cl)cc2C(c2c(F)cccc2OC)=NC3)ccc1C(=O)O [Alisertib] (first compound max 1 µM, 7x7, partner max 10 µM) = 0.241

Please fill in: combination Emax reported for C=CCn1c(=O)c2cnc(Nc3ccc(N4CCN(C)CC4)cc3)nc2n1-c1cccc(C(C)(C)O)n1 [AZD1775] + O=C(c1cc(Cc2n[nH]c(=O)c3ccccc23)ccc1F)N1CCN(C(=O)C2CC2)CC1 [Olaparib] (first compound max 1 µM, partner max 10 µM) = 0.82

Please fill in: combination Emax reported for COc1nnc2ccc(N3CCC(c4ccc(OCCN5CCN(C)C(=O)[C@H]5C)cc4)CC3)nn12 [AZD5153] + CN(CC[C@H](CSC1=CC=CC=C1)NC2=C(C=C(C=C2)S(=O)(=O)NC(=O)C3=CC=C(C=C3)N4CCC(CC4)[C@H](C5=CC=CC=C5C6=CC=C(C=C6)Cl)O)S(=O)(=O)C(F)(F)F)CCO [AZD4320] (first compound max 1 µM, 7x7, partner max 1 µM) = 0.346

Please fill in: combination Emax reported for COc1cccc2c1C(=O)c1c(O)c3c(c(O)c1C2=O)C[C@@](O)(C(=O)CO)C[C@@H]3O[C@H]1C[C@H](N)[C@H](O)[C@H](C)O1 [Doxorubicin] + Cc1cc2ncnn2cc1Nc1ncc2c(n1)n(C1CCOCC1)c(=O)n2C [AZD7648] (first compound max 1 µM, 7x7, partner max 10 µM) = 0.406

Please fill in: combination Emax reported for COc1cccc(OCCCN)c1-c1cc(Nc2cnc(C#N)cn2)n[nH]1 [Prexasertib] + CN(C)CCCOc1ccc(-c2ccc3ncc4c(c3c2)n(C2CCOCC2)c(=O)n4C)cn1 [AZD0156] (first compound max 1 µM, 7x7, partner max 1 µM) = 0.823

Please fill in: combination Emax reported for C=CCn1c(=O)c2cnc(Nc3ccc(N4CCN(C)CC4)cc3)nc2n1-c1cccc(C(C)(C)O)n1 [AZD1775] + C1CN(CCC1(C(=O)N[C@@H](CCO)C2=CC=C(C=C2)Cl)N)C3=NC=NC4=C3C=CN4 [Capivasertib] (first compound max 3 µM, partner max 3 µM) = 0.83

Please fill in: combination Emax reported for CN(CCO)CC[C@H](CSc1ccccc1)Nc1ccc(S(=O)(=O)NC(=O)c2ccc(N3CCC([C@@H](O)c4ccccc4-c4ccc(Cl)cc4)CC3)cc2)cc1S(=O)(=O)C(F)(F)F [AZD4320] + Cc1cc2ncnn2cc1Nc1ncc2c(n1)n(C1CCOCC1)c(=O)n2C [AZD7648] (first compound max 1 µM, 7x7, partner max 10 µM) = 0.245

Please fill in: combination Emax reported for COc1nnc2ccc(N3CCC(c4ccc(OCCN5CCN(C)C(=O)[C@H]5C)cc4)CC3)nn12 [AZD5153] + CCN(CCO)CCCOc1ccc2c(Nc3cc(CC(=O)Nc4cccc(F)c4)[nH]n3)ncnc2c1 [AZD2811] (first compound max 1 µM, 7x7, partner max 1 µM) = 0.302
